A collection of molecules and their measured EC50 Hek293F (ng/well)
Test system: HEK293F cells
Assay: In vitro expression of novel ionizable lipid nanoparticles, high content imaging (CA HA modFlu mRNA)
Format: cell-based
Settings: LNP with CA HA modFlu mRNA

Molecule	Tested On	EC50 Hek293F (ng/well)
CCCCCCCC(CCCCCCC)OC(=O)CCC(=O)O[C@@H]1CC2(CCN(CCCCO)CC2)C[C@H]1OC(=O)CCC(=O)OC(CCCCCCC)CCCCCCC (racemic) [Example 62]	HEK293F cells	0.36
CCCCCCCC(CCCCCCC)C(=O)OCC(COC(=O)C(CCCCCCC)CCCCCCC)N1CCC2(CCN(CCCCO)C2)C1 (stereo not drawn) [Example 12]	HEK293F cells	0.22
CCCCCCCC(CCCCCCC)C(=O)OCC(COC(=O)C(CCCCCCC)CCCCCCC)N1CC2(CCN(CCCCO)CC2)C1 [Example 13]	HEK293F cells	0.36
CCCCCCCC(CCCCCCC)C(=O)OCC1(COC(=O)C(CCCCCCC)CCCCCCC)CCC2(CCN(CCCCO)CC2)CC1 [Example 1]	HEK293F cells	1.7
CCCCCCCCCCCCC(CCCCCCC)C(=O)O[C@@H]1CC2(CCN(CCCCO)CC2)C[C@H]1OC(=O)C(CCCCCCC)CCCCCCCCCCCC (mixture of isomers) [Example 60]	HEK293F cells	1.6
CCCCCCCCC(CCCCCC)C(=O)OCCCC(COC(=O)C(CCCCCC)CCCCCCCC)N1CCC2(CCN(CCCCO)CC2)CC1 (stereo not drawn) [Example 19]	HEK293F cells	1.4
